Every entry's value here was drawn from patent US6706880B2.

- study system: norepinephrine transporter (UniProt Q9WTR4)
- assay comment: Inhibition of [3H]nisoxetine radioligand binding at the norepinephrine transporter
- condition details: read-out: NEN IC50 for inhibition of radioligand binding; NEN=[3H] nisoxetine
Counter-ions that a name gives are not always drawn.
Param label: returns Criterion met when IC50 < 3000 nM, returns Criterion not met otherwise, including exact equality.

Strictly below 3000 nM in IC50? CC(C)OC(=O)C1C2CCC(CC1c1ccc(I)cc1)N2 (centres unmarked) [RTI-4229-153] Criterion met

Consider the molecule CN1[C@H]2CC[C@@H]1[C@@H](c1nc3ccccc3s1)[C@@H](c1ccc(Cl)cc1)C2 [RTI-4229-202, Hydrochloride] . Is its IC50 strictly less than 3000 nM? Criterion met

Could you please tell me whether IC50 recorded for COC(=O)C1C(c2ccc(C)c(I)c2)CC2CCC1N2C (centres unmarked) [RTI-4229-280] is less than 3000 nM? Criterion met

Strictly below 3000 nM: is that where IC50 of CN1[C@H]2CC[C@@H]1[C@@H](c1ncc(-c3ccccc3)s1)[C@@H](c1ccc(Cl)cc1)C2 [RTI-4229-219, Hydrochloride] sits? Criterion not met

Below 3000 nM on IC50? Entry C/C=C\c1ccc(C2C[C@H]3CCC(C2C(=O)OC)N3C)cc1 (some centres unmarked) [RTI-4229-304] Criterion met

Check if IC50 falls below 3000 nM for CCc1ccc(C2CC3CCC(N3)C2C(=O)OCc2ccccc2)cc1 (centres unmarked) [RTI-4229-338] . Criterion not met

Threshold test, IC50 < 3000 nM: CCc1ccc(C2CC3CCC(C2C(=O)OC)N3C)cc1 (centres unmarked) [RTI-4229-287] Criterion not met

Lab note: confirm whether the reported IC50 for this molecule is below 3000 nM, equality not counting. molecule: CC(C)c1cc([C@@H]2C3CCC(C[C@@H]2c2ccc(Cl)cc2)N3C)on1 (some centres unmarked) [RTI-4229-335] Criterion met
